System: Candida albicans ATCC 10231
Test: Microdilution antifungal assay (CLSI), C. albicans
Format: cell-based
Conditions: compound at 100 μM; mean and standard deviation; 24 h
Entry flag: Satisfied if Percentage values of microbial growth, C. albicans reaches 70%; Not satisfied if it does not.

Does Percentage values of microbial growth, C. albicans meet or surpass 70% for CCCCCCCC(=O)N/N=C/c1cc(S(=O)(=O)[O-])cc(OC)c1[O-].[Cl-].[Cu+2].[Na+] [Compound 13, [NaCu(HL7)Cl]] ?
Satisfied

Further cases:
Could you verify whether the entry COc1cccc(/C=N/NC(N)=O)c1[O-].[Cl-].[Cu+2] [Compound 5, [Cu(HL3)Cl]∙0.5H2O∙0.5CH3OH] shows Percentage values of microbial growth, C. albicans of no less than 70%?
Satisfied

And the next one, CCNC(=S)N/N=C/c1cccc(OC)c1[O-].[Cl-].[Cu+2] [Compound 4] ?
Not satisfied

Now give it for CCNC(=S)N/N=C/c1cc(S(=O)(=O)[O-])cc(OC)c1[O-].[Cl-].[Cu+2].[Na+] [Compound 9] too.
Satisfied

Try this molecule next: COc1cc(S(=O)(=O)[O-])cc(/C=N/NC(N)=S)c1[O-].[Cl-].[Cu+2].[Na+] [Compound 8]
Satisfied
